tested-system: HLA-B*3501 (human)
readout-kind: Stability (half-life of the peptide on HLA-B*35)

Worked set:
TPRLPSSADVEFCL (synthetic peptide; also called 14-mer 309-322) [tyrosinase peptide 309-322 TPRLPSSADVEFCL] ... > 6 h
LAMPFATPMEAE (synthetic peptide; also called 12-mer 92-103) [NY-ESO-1 peptide 92-103 LAMPFATPMEAE] ... > 6 h
TPRLPSSADVEF (synthetic peptide; also called 12-mer 309-320) [tyrosinase peptide 309-320 TPRLPSSADVEF] ... > 6 h
EVDPIGHVY (synthetic peptide) [MAGE-A6 peptide 168-176 EVDPIGHVY] ... 6 h
EAAGIGILY (synthetic modified peptide) [modified Melan-A peptide 26-34 EAAGIGILY] ... > 6 h

Consider the additional binder presented here.
Entry MPFATPMEAEL (synthetic peptide; also called 11-mer 94-104) [NY-ESO-1 peptide 94-104 MPFATPMEAEL] needs its Stability (half-life of the peptide on HLA-B*35) filled in; supply it.
> 6 h

meta.source: patent US20060122119A1
